# experimental system: ~100 representative kinases (Homo sapiens)
# Construct: Recombinant protein kinase domains with a concentration of 2 μM
# Sequence (P28482 whole entry, the tested form may be a part): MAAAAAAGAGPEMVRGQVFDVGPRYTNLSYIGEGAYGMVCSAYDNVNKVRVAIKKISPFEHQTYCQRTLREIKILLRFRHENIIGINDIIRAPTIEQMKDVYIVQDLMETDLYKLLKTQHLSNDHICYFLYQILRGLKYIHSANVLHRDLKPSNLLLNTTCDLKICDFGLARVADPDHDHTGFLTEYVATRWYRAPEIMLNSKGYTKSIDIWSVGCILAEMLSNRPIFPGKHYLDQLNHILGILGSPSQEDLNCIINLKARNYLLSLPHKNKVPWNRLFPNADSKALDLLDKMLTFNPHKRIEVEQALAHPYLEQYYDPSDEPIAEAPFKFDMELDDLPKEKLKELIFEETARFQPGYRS
# assay details: DSF 100 kinase selectivity screen;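 further: compound tested at 20 µM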
# Assay type: binding
# condition description: protein MAPK1; average of three replicates
assay endpoint: dTm (K)

O=C(Nc1cccc(-c2c[nH]c3ncnc(N4CCOCC4)c23)c1)C1(C(=O)Nc2cccc3c2CCC3)CC1 [Compound 11] ... 1.31

P = O=C(Nc1cccc(-c2c[nH]c3ncnc(N4CCOCC4)c23)c1)c1cccn(-c2ccc(F)cc2)c1=O [Compound 4]
Q = CC(=O)N1CCN(c2nc(Cl)nc3[nH]cc(-c4cccc(NC(=O)Nc5cc(C(C)(C)C)nn5-c5ccc(C)cc5)c4)c23)CC1 [Compound 31]
Which value of dTm is smaller, the one for P or the one for Q ? Let me know the label of the one you choose. Q
